Provenance of the data: patent US20250270315A1

Each entry below lists one item and its recorded TOP blocking (%) value.
biological target: T1, human SIRPα v2 ECD recombinant protein (tag not given) (human); test: competitive ELISA, mFc-CD47 ECD on coated SIRPα v2 ECD
T1 construct: extracellular domain; also called ELISA microplate coated human SIRPα v2 ECD
Reply numerically in %, unit not repeated.

Illustrative cases are given below, each with its answer.
hu025.021 (antibody, V domains shown, Humanized 025; also called hu025.21) VH: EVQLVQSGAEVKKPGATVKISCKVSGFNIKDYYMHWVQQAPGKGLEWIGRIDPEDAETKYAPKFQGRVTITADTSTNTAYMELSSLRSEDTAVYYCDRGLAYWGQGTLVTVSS VL: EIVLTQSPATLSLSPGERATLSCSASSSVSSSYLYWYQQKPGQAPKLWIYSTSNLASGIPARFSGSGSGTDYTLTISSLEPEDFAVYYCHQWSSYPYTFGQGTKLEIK; 98.3
hu025.033 (antibody, V domains shown, Humanized 025) VH: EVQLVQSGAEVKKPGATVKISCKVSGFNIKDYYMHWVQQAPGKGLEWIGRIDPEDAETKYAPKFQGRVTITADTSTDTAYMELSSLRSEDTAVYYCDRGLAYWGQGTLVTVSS VL: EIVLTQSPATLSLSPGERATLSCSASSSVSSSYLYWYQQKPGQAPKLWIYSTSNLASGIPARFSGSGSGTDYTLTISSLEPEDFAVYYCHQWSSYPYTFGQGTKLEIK; 98.3
hu025.023 (antibody, V domains shown, Humanized 025; also called hu025.23) VH: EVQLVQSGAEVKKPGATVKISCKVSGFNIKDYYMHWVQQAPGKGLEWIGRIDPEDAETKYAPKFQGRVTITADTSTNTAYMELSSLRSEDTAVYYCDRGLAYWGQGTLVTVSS VL: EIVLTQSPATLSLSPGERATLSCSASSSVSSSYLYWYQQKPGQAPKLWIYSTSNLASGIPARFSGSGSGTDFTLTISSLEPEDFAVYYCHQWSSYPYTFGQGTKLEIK; 98

Input line: Using the record for hu025.060 (antibody, V domains shown, Humanized 025; also called hu025.60) VH: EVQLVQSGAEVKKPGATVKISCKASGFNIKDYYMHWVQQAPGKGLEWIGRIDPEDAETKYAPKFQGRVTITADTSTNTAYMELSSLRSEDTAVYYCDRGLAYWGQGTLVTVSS VL: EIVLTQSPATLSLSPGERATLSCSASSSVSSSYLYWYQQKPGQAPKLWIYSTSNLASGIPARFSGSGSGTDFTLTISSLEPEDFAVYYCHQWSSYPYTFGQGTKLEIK , report its TOP blocking (%).
Output line: 97

Input line: Same question, 025c (antibody, V domains shown, also called chimeric antibody 025c; parental antibody of 025c) VH: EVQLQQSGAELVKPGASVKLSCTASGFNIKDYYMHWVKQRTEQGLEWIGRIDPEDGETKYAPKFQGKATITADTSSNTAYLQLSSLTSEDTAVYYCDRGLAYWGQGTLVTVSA VL: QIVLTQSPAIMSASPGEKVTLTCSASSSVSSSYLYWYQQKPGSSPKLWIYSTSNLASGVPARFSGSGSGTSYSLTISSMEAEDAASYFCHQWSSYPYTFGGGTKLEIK this time
Output line: 98.6

Input line: Same question, hu025.059 (antibody, V domains shown, Humanized 025; also called hu025.59) VH: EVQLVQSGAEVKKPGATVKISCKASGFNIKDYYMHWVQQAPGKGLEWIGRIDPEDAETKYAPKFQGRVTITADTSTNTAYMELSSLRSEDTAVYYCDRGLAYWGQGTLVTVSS VL: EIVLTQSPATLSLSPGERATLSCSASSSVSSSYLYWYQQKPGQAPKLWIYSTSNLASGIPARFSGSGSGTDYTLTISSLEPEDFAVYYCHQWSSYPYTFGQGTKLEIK this time
Output line: 98.3
